# EXPERIMENT_SUMMARY: Antagonist activity at CCR9 receptor in human MOLT4 cells assessed as inhibition of CCl25-mediated cell migration preincubated for 30 mins followed CCL25 addition incubated for 2 hrs by ChemoTx plate system
MEASURED_PARAMETER: Ki (nM)

Use the examples below as a reference point.
- COMPOUND: "COc1ccncc1N1C(=O)c2c(Cl)ccc(NS(=O)(=O)c3ccc(C(C)(C)C)cc3)c2C1=O [US9969687, Compound 119]"
  MEASURED_PARAMETER: "Ki"
  ASSAY_VALUE: 3
- COMPOUND: "Cc1cccc(N2C(=O)c3c(Cl)ccc(NS(=O)(=O)c4ccc(C(C)(C)C)cc4)c3C2=O)n1 [US9969687, Compound 228]"
  MEASURED_PARAMETER: "Ki"
  ASSAY_VALUE: 19
- COMPOUND: "COc1ncccc1N1C(=O)c2c(Cl)ccc(NS(=O)(=O)c3ccc(C(C)(C)C)cc3)c2C1=O [US9969687, Compound 183]"
  MEASURED_PARAMETER: "Ki"
  ASSAY_VALUE: 32
- COMPOUND: "Cc1ncccc1N1C(=O)c2c(Cl)ccc(NS(=O)(=O)c3ccc(C(C)(C)C)cc3)c2C1=O [US9969687, Compound 175]"
  MEASURED_PARAMETER: "Ki"
  ASSAY_VALUE: 14
- COMPOUND: "CC(C)(C)c1ccc(S(=O)(=O)Nc2ccc(Cl)c3c2C(=O)N(Cc2cccc[n+]2[O-])C3=O)cc1 [US9969687, Compound 199]"
  MEASURED_PARAMETER: "Ki"
  ASSAY_VALUE: 40

(a) CC(C)(C)c1ccc(S(=O)(=O)Nc2ccc(Cl)c3c2C(=O)N(c2ccccn2)C3=O)cc1 [US9969687, Compound 222]
(b) CC(C)(C)c1ccc(S(=O)(=O)Nc2ccc(Cl)c3c2C(=O)N(c2cccnc2F)C3=O)cc1 [US9969687, Compound 218]
(c) CC(C)(C)c1ccc(S(=O)(=O)Nc2ccc(Cl)c3c2C(=O)N(Cc2ccc[n+]([O-])c2)C3=O)cc1 [US9969687, Compound 65]
Data request: Order the 3 compounds from highest to lowest Ki. API: response body holds the labels in the requested order.
Data returned: b, c, a
(b: 91 nM, c: 38 nM, a: 9 nM)

(A) COc1c(N2C(=O)c3c(Cl)ccc(NS(=O)(=O)c4ccc(C(C)(C)C)cc4)c3C2=O)ccc[n+]1[O-] [US9969687, Compound 194]
(B) Cc1c(N2C(=O)c3c(Cl)ccc(NS(=O)(=O)c4ccc(C(C)(C)C)cc4)c3C2=O)ccc[n+]1[O-] [US9969687, Compound 176]
Data request: Compare Ki: is it lower for A or for B ? Write down the label attached to your selection.
Data returned: B
